System: biotinyl-Trp-oxazolone
test-description: self-aminoacylation, catalytic enhancement (BWO) (fold over background); higher = more active; k-Seq, kA / k0A0; sequences stand for … in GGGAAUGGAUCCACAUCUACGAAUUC…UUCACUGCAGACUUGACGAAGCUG
Fewer inactive variants are shown than the library holds.
Tick Condition met if self-aminoacylation is 2 or greater. Tick Condition not met if self-aminoacylation is less than 2.

>>> df
                            record_sequence             test_target       answer_label
0  AUUACAAUGGUCAUCGAGUGA [Fam2.1 aminoacylation ribozyme variant]  biotinyl-Trp-oxazolone      Condition met
1  CUACCUCCAACAAUCGGUCUG [Fam1A.1 aminoacylation ribozyme variant]  biotinyl-Trp-oxazolone      Condition met
2  AUUACUCUGGUCAUGGAGUGA [Fam2.1 aminoacylation ribozyme variant]  biotinyl-Trp-oxazolone      Condition met
3  CCACAAGUCAAGCAAUCGGUC [Fam1B.1 aminoacylation ribozyme variant]  biotinyl-Trp-oxazolone  Condition not met
4  AUUACCCUGGUCAUGUAGUGA [Fam2.1 aminoacylation ribozyme variant]  biotinyl-Trp-oxazolone      Condition met

Could you please find out whether AAGUUUGAUUAUAGUCGCAAG [Fam3.1 aminoacylation ribozyme variant] has self-aminoacylation that meets 2 or exceeds it?
Condition met

Would you kindly repeat that for GUACUUCAAACAAUCAGUCUG [Fam1A.1 aminoacylation ribozyme variant] ?
Condition met

Would you kindly repeat that for AUUACCCUGGUCAUCGAGUAG [Fam2.1 aminoacylation ribozyme variant] ?
Condition met

Would you kindly repeat that for CAGUUUGCUAGUAGUCGCAAG [Fam3.1 aminoacylation ribozyme variant] ?
Condition not met

Would you kindly repeat that for AUACACCUAGGACAUCGGGUG [Fam2.2 aminoacylation ribozyme variant] ?
Condition met

Would you kindly repeat that for CCACACUUCAAGCAGUAGGUC [Fam1B.1 aminoacylation ribozyme variant] ?
Condition not met

Would you kindly repeat that for AUUACCCGGGUCCUCGAGUGA [Fam2.1 aminoacylation ribozyme variant] ?
Condition met

Would you kindly repeat that for CCACACUUCACGCAAUCGGCC [Fam1B.1 aminoacylation ribozyme variant] ?
Condition met

Would you kindly repeat that for CUAAUUGAAACAAUCGGUCUG [Fam1A.1 aminoacylation ribozyme variant] ?
Condition not met
